Test method notes: Cytotoxicity against mouse NIH/3T3 cells after 72 hrs by MTT assay
Assay type: cell-based, NIH3T3
Condition description: NIH/3T3 cells, read-out: TD50
Property: CC50 at 72 h (µg/mL)
Give a bare numeral; the unit µg/mL is implied.

Prompt: Item O=c1c2[se]c3ccccc3c2nc2ccccn12 : provide CC50 at 72 h
Response: 31

Prompt: Item CCOC(=O)c1[se]c2ccccc2c1Sc1ncccn1 : provide CC50 at 72 h
Response: 840

Prompt: Item CCOC(=O)c1[se]c2ccccc2c1C#CC1=CCCCC1 : provide CC50 at 72 h
Response: 120

Prompt: Item CCOC(=O)c1[se]c2ccccc2c1-c1cc(F)c(F)c(F)c1 : provide CC50 at 72 h
Response: 100

Prompt: Item CCOC(=O)c1[se]c2ccccc2c1-c1ccc(C)s1 : provide CC50 at 72 h
Response: 15

Prompt: Item CCOC(=O)c1[se]c2ccccc2c1-c1ccsc1 : provide CC50 at 72 h
Response: 31

Prompt: Item O=c1c2[se]c3ccccc3c2nc2ccc(Cl)cn12 : provide CC50 at 72 h
Response: 32

Prompt: Item CCOC(=O)c1[se]c2ccccc2c1Br : provide CC50 at 72 h
Response: 896

Prompt: Item CCOC(=O)c1[se]c2ccccc2c1C#Cc1ccccc1 : provide CC50 at 72 h
Response: 614

Prompt: Item CCOC(=O)c1[se]c2ccccc2c1-c1ccc(C#N)cc1 : provide CC50 at 72 h
Response: 684

Prompt: Item CCOC(=O)c1[se]c2ccccc2c1Nc1cccnc1 : provide CC50 at 72 h
Response: 1000

Prompt: Item O=c1c2[se]c3ccccc3c2nc2c(Cl)cc(C(F)(F)F)cn12 : provide CC50 at 72 h
Response: 31

Prompt: Item O=c1c2[se]c3ccccc3c2nc2cnccn12 : provide CC50 at 72 h
Response: 27

Prompt: Item Cc1csc2nc3c([se]c4ccccc43)c(=O)n12 : provide CC50 at 72 h
Response: 21

Prompt: Item O=c1c2[se]c3ccccc3c2nc2sc3ccccc3n12 : provide CC50 at 72 h
Response: 27

Prompt: Item O=c1c2[se]c3ccccc3c2nc2c3ncccc3ccn12 : provide CC50 at 72 h
Response: 56

Prompt: Item CCOC(=O)c1[se]c2ccccc2c1-c1ccccc1 : provide CC50 at 72 h
Response: 16
